tested on: HOP-92 NSCLC; assay: NCI-60 one-dose screen, 48 h; conditions: 10 µM unless noted
The panel holds about 83,000 compounds, 20% with a hit somewhere; the sample as a whole holds those more often. Activity calls are given as the source filed them. How the source made its calls: active means growth percent below 10; inactive means the rest.
Outcomes: 1 (yes) = active, 0 (no) = inactive

INSERT INTO measurements (compound, assayed_system, classification) VALUES
  ('CC(=O)Nc1ccc(C(=O)COc2ccc(/C=C3\CCc4ccccc4C3=O)cc2)cc1', 'HOP-92 NSCLC', '0 (no)'),
  ('O=C(Nc1nc2c(C(F)(F)F)cccc2s1)c1cc(Cl)ccc1O', 'HOP-92 NSCLC', '1 (yes)'),
  ('O=C1C(=O)/C(=C/c2ccccc2)CCCCCC/C1=C/c1ccccc1', 'HOP-92 NSCLC', '0 (no)'),
  ('O=C1C=CC(=O)N1c1ccccn1', 'HOP-92 NSCLC', '0 (no)'),
  ('Cc1cc2c(cc1C)[n+](Cc1ccc3ccccc3n1)cn2Cc1ccc2ccccc2n1', 'HOP-92 NSCLC', '1 (yes)'),
  ('COC(=O)C1(NC(=O)CNC(=O)OCc2ccccc2)CCCC1', 'HOP-92 NSCLC', '0 (no)'),
  ('COC(=O)c1cc2c(/C=C3/NC(=S)NC3=O)coc2n1C', 'HOP-92 NSCLC', '1 (yes)'),
  ('CC(=O)Nc1ccc(C(=O)COc2cccc(/C=C3\CCc4ccccc4C3=O)c2)cc1', 'HOP-92 NSCLC', '0 (no)'),
  ('CCc1ccc(-c2nc(SCC(=O)NC3CCCCC3)n[nH]2)cc1', 'HOP-92 NSCLC', '0 (no)'),
  ('O=C(C(=O)c1cc(Br)ccc1O)c1cc(Br)ccc1O', 'HOP-92 NSCLC', '0 (no)'),
  ('CCOC(=O)c1cc2oc(/C=C/c3cc(=O)c4cc(Cl)ccc4o3)cc2[nH]1', 'HOP-92 NSCLC', '1 (yes)'),
  ('COC(=O)[C@H](Cc1cn(C)cn1)NC(=O)[C@H](C)NC(=O)Nc1cc(C(F)(F)F)cc(C(F)(F)F)c1', 'HOP-92 NSCLC', '1 (yes)'),
  ('O=c1[nH]c(SCc2ccccc2)nc2nc(Nc3ccc(NC(=S)Nc4ccccc4)cc3)nc(-c3ccc(O)cc3O)c12', 'HOP-92 NSCLC', '1 (yes)'),
  ('COC(=O)c1c(NC(=O)CSc2nnnn2-c2ccc(OC)cc2)sc(C)c1C', 'HOP-92 NSCLC', '0 (no)'),
  ('CCCCc1ccc(C(N)=O)nc1', 'HOP-92 NSCLC', '0 (no)'),
  ('COc1c(Br)cc(C(c2cc(Br)c(OC)c(Br)c2)c2ccccc2C(=O)O)cc1Br', 'HOP-92 NSCLC', '0 (no)'),
  ('O=C(O)c1ccc2cccnc2c1O', 'HOP-92 NSCLC', '1 (yes)'),
  ('NC(=O)c1cc(Br)cc(Br)c1NS(=O)(=O)c1ccccc1', 'HOP-92 NSCLC', '0 (no)'),
  ('COc1cc(/C=C/C(=O)CC(=O)/C=C/c2ccc(OC(=O)CCNC34CC5CC(CC(C5)C3)C4)c(OC)c2)ccc1OC(=O)CCNC12CC3CC(CC(C3)C1)C2', 'HOP-92 NSCLC', '0 (no)'),
  ('COc1cccc(/C=N\NC(=O)c2ccncc2)c1O', 'HOP-92 NSCLC', '0 (no)'),
  ('O=c1c2ccccc2c2nccn2c2cc(Cl)ccc12', 'HOP-92 NSCLC', '0 (no)'),
  ('CC(C)=CCNc1ncnc2c1ncn2C1OC(COP(=O)(O)O)C(O)C1O (configuration not stated)', 'HOP-92 NSCLC', '0 (no)');
